Test system: Plasmodium falciparum
Experiment: NOVARTIS: Inhibition of Plasmodium falciparum 3D7 (drug-susceptible) proliferation in erythrocyte-based infection assay
Assay type: functional, organism-based
Conditions: Plasmodium falciparum, 3D7
In plain terms, low EC50, meaning strictly below 200 nM, gives Y, and everything else gives N.

Known results for compounds:
[
  {
    "compound": "CCOc1ccc(C(=O)Nc2cc(OC)ccc2OC)cc1",
    "group_label": "N"
  },
  {
    "compound": "COc1ccc(OC)c(-c2ccc(C(=O)N3CCN(CC=Cc4ccccc4)CC3)c(N(C)C)n2)c1",
    "group_label": "Y"
  },
  {
    "compound": "Cc1cc(C)n(CC(O)Cn2c3ccc(Cl)cc3c3cc(Cl)ccc32)n1 (centres undefined)",
    "group_label": "N"
  },
  {
    "compound": "O=C(Nc1cccc(Oc2ccccc2)c1)NC(CN1CCCC1)c1ccccc1 (centres undefined)",
    "group_label": "N"
  },
  {
    "compound": "Nc1ccc(N2CCCCCC2)cc1",
    "group_label": "Y"
  }
]

Next item in the queue.
Incoming: Just wondering, is EC50 of "COc1ccc(C=C2SC(=N)N(c3ccccc3OC)C2=O)cc1" below 200 nM?
Outgoing: Y

----------
Assay: NOVARTIS: Cytotoxicity against human hepatocellular carcinoma cell line (Huh7)
Format: toxicity, cell-based, Huh-7
Settings: Huh7 cells (hepatocellular carcinoma cell line)
property_measured: CC50

[
  {
    "compound": "O=C(/C=C/c1ccccc1Cl)Nc1ccc(Oc2ccc3ccccc3c2Cl)c(Cl)c1",
    "CC50": "> 10 µM"
  },
  {
    "compound": "COc1ccccc1CNC(=O)CN1C(=O)c2cccnc2Oc2ccccc21",
    "CC50": "> 10 µM"
  },
  {
    "compound": "c1ccc(-c2cccc(-c3ccccn3)n2)nc1",
    "CC50": "12.6 µM"
  },
  {
    "compound": "CCCCC(CC)C(=O)N(CCCC(C)Nc1cc(OC)cc2cccnc12)Cc1ccc(OC)c(OC)c1 (stereo not drawn)",
    "CC50": "> 10 µM"
  },
  {
    "compound": "Oc1ccc(-c2cncnc2)cc1CNC1CCN(Cc2ccccc2)CC1",
    "CC50": "> 100 µM"
  }
]

Incoming: Quote CC50 reported for N=c1n(CCN2CCCC2)c2ccccc2n1CC(O)c1ccc(Cl)c(Cl)c1 (stereo not drawn) please.
Outgoing: 10.9 µM

Incoming: Quote CC50 reported for "CCCCNC1=CC(=O)C(=O)c2ccccc21" please.
Outgoing: > 77.9 µM

Incoming: Quote CC50 reported for "Clc1ccc(-c2nc3cc(Cl)cnc3[nH]2)cc1" please.
Outgoing: > 8.52 µM

Incoming: Quote CC50 reported for "CC[n+]1c(/C=C/C=C2\N(C)c3ccccc3C2(C)C)n(Cc2ccccc2)c2ccccc21" please.
Outgoing: 2.42 µM

Incoming: Quote CC50 reported for "CCCc1c(C)nc2ccccc2c1O" please.
Outgoing: > 100 µM

Incoming: Quote CC50 reported for "Cn1cnc(S(=O)(=O)Nc2ccccc2C(=O)NCC2CC2)c1" please.
Outgoing: > 10 µM

Incoming: Quote CC50 reported for "CN(C)c1ccc(N=C2NC(=O)/C(=C/c3ccc(Cl)cc3)S2)cc1" please.
Outgoing: > 10 µM

Incoming: Quote CC50 reported for "N#Cc1cccc(C=CC(=O)O)c1" please.
Outgoing: > 100 µM

Where these numbers come from: ChEMBL document CHEMBL1156829
